Test system: human monoclonal antibody CR57
Format: binding
experimental-endpoint: Binding of CR57 (10 μg/ml) to looped/cyclic peptide (PEPSCAN-ELISA signal)
Write no unit; give the number alone.

Q) So what does the record say about Binding of CR57 (10 μg/ml) to looped/cyclic peptide (PEPSCAN-ELISA signal) for SYMELKVGYILAIKM ?
A) 106

Q) Same question for RKHFRPTPDACRAAY please.
A) 72

Q) Let us now turn to NPYPDYRWLRTVKTT
A) 89

Q) Now this one: CRAAYNWKMAGDPRY
A) 107

Q) Likewise for GKCSGVAVSSTYCST ?
A) 79

Q) Then LSGFSYMELKVGYIL ?
A) 72

Q) Another sequence to check: YMELKVGYILAIKMN
A) 93

Q) Let us now turn to MNGFTCTGVVTEAEN
A) 85

Q) Let us now turn to LDKLGPWSPIDIHHL
A) 93

Q) Follow-up item: VEDEGCTNLSGFSYM
A) 83

Q) Try this sequence too: RYEESLHNPYPDYRW
A) 98

Q) Can you check KCSGVAVSSTYCSTN next?
A) 101

Q) # repeat for TNHDYTIWMPENPRL
A) 40

Q) Another: CTNLSGFSYMELKVG
A) 70

Q) Same read-out for WMPENPRLGMSCDIF ?
A) 199

Q) Another sequence: VGYILAIKMNGFTCT
A) 97

Q) What do you have for MELKVGYILAIKMNG ?
A) 71

Q) Then SGVAVSSTYCSTNHD ?
A) 79
